Measured values drawn from patent US20230295164A1 for this set.

System: Escherichia coli, ATCC BAA-198
Test: MIC testing, broth microdilution in CAMHB
Type: cell-based
Conditions: 37° C., 18-20 hr, lowest concentration that completely inhibits visible growth
metric name: Compound MICs, Escherichia coli, ATCC BAA-198 (µg/mL)
Could you give me the number in µg/mL? Just the number is fine.

// lookup Compound MICs, Escherichia coli, ATCC BAA-198 for `CC(C)c1ccc(Cn2ccc3c4c(N)nc(N)nc4ccc32)nc1` 21.3

Same lookup for `COc1ccc(-c2cc3c(ccn3Cc3ccc(F)cc3)c3c(N)nc(N)nc23)cc1` , please. 64

Also `Nc1nc(N)c2c(ccc3c2ccn3Cc2ccc(-c3ccccn3)cc2)n1` , if possible. 7.11

Lookup `Cc1cc2c(ccn2Cc2ccc(F)cc2)c2c(N)nc(N)nc12` 7.11

Same question for `C=Cc1ccc(Cn2ccc3c4c(N)nc(N)nc4ccc32)cc1` please. 2.37
